System: L1210 leukemia ip in BDF1 mice, survival T/C
PROCEDURE_DETAILS: NCI In Vivo Anticancer Drug Screen. Data for tumor model L1210 Leukemia (intraperitoneal) in B6D2F1 (BDF1) mice
TEST_SETTINGS: endpoint: mean survival time; dose: 200.0 mg/kg/injection; schedule: Q04DX002 (ip); vehicle: Klucel (hydroxypropylcellulose) (HPC); higher = longer survival
Toxic doses and inconclusive results are not listed.
OBSERVED_PROPERTY: T/C

> print(dat)
                                   compound                             target.system    value.measured
1    OC1C2CC3CC(C2)CC1C3 (stereo not given)  L1210 leukemia ip in BDF1 mice, survival T/C   98 % of control
2  CC/C(=C(\c1ccccc1)c1ccc(OCCN(C)C)cc1)c1ccccc1  L1210 leukemia ip in BDF1 mice, survival T/C   92 % of control
3       Cc1cc(C)c(NC(=O)Nc2cccc(F)c2)c(C)c1  L1210 leukemia ip in BDF1 mice, survival T/C  102 % of control
4          CCOC(=O)c1nc(N2CCOCC2)c2ccccc2n1  L1210 leukemia ip in BDF1 mice, survival T/C  101 % of control

// moving on: another record for T/C
Inquiry: Give me measured T/C, please, for this compound: "O=[N+]([O-])c1ccc(Oc2ccc(S(=O)(=O)c3ccc(Oc4ccc([N+](=O)[O-])cc4)c([N+](=O)[O-])c3)cc2[N+](=O)[O-])cc1"
Reply text: 96 % of control

----------
System: L1210 leukemia ip in BDF1 mice, survival T/C
PROCEDURE_DETAILS: NCI In Vivo Anticancer Drug Screen. Data for tumor model L1210 Leukemia (intraperitoneal) in B6D2F1 (BDF1) mice
TEST_SETTINGS: endpoint: mean survival time; dose: 40.0 mg/kg/injection; schedule: Q01DX001 (ip); vehicle: carboxymethylcellulose (CMC)
Inconclusive results and toxic doses are left out. Rule as the data show it: active = T/C of 150% or more; inactive = T/C below 125%.
Respond only with the outcome that fits, drawn from TRUE = active, FALSE = inactive

> print(dat)
                                   compound  qualitative.label
1    CCOc1cc(/C=N\Nc2nncn2N)ccc1N(CCCl)CCCl              FALSE
2  CC(CC(c1ccccc1)c1ccccc1)[N+](C)(C)C (centres undefined)              FALSE
3  CC1=CCC2C(=O)C=CC(=O)C2C1 (centres undefined)              FALSE

We now examine a further compound.
Inquiry: What classification did "O=NN(CCCl)C(=O)Nc1ccc(Cn2ccc(=O)[nH]c2=O)cc1" end up with in this test?
Reply text: TRUE

----------
Test system: L1210 leukemia ip in BDF1 mice, survival T/C
PROCEDURE_DETAILS: NCI In Vivo Anticancer Drug Screen. Data for tumor model L1210 Leukemia (intraperitoneal) in B6D2F1 (BDF1) mice
TEST_SETTINGS: endpoint: mean survival time; dose: 50.0 mg/kg/injection; schedule: Q04DX003 (ip); vehicle: Klucel (hydroxypropylcellulose) (HPC); higher = longer survival
Toxic doses and inconclusive results are not listed.
OBSERVED_PROPERTY: T/C

# annotated cases, reported T/C shown
> print(dat)
                                smiles.repr    value.measured
1  N#Cc1cccc(C[P+](c2ccccc2)(c2ccccc2)c2ccccc2)c1  100 % of control
2  CC1(C)N=C(N)N=C(N)N1c1cccc(CCCCc2ccc(Cl)cc2Cl)c1  100 % of control

Field: next compound
Inquiry: Specify measured T/C for "Sc1ccccc1Cl" .
Reply text: 103 % of control

----------
System: L1210 leukemia ip in BDF1 mice, survival T/C
PROCEDURE_DETAILS: NCI In Vivo Anticancer Drug Screen. Data for tumor model L1210 Leukemia (intraperitoneal) in B6D2F1 (BDF1) mice
TEST_SETTINGS: endpoint: mean survival time; dose: 200.0 mg/kg/injection; schedule: Q01DX009 (ip); vehicle: Klucel (hydroxypropylcellulose) (HPC); higher = longer survival
Inconclusive results and toxic doses are left out.
OBSERVED_PROPERTY: T/C

Sample answers from the record:
> print(dat)
                                   compound    value.measured
1  COc1cc(N(CCCl)CCCl)ccc1CN1CCCN(Cc2ccc(N(CCCl)CCCl)cc2OC)C1c1ccccc1O   90 % of control
2       NCCc1ccc(S(=O)(=O)O)cc1[N+](=O)[O-]   89 % of control
3  COC(=O)c1ccccc1NC(=O)Nc1cc([N+](=O)[O-])ccc1OC  108 % of control
4      CCOc1ccc(NC(=O)Nc2ccccc2C(F)(F)F)cc1   96 % of control
5  O=C(CNC(=O)c1ccc(Cl)c(Cl)c1)N/N=C/c1ccc(Cl)cc1   98 % of control

Give measured T/C for every item shown.
1. CCOC(=O)C1(C)C(=O)CC2c3nc4ccccc4cc3CN2C1=O (configuration not stated)
2. CCOc1cc(/C=N\N=C\c2ccc(O)c(OCC)c2)ccc1O
3. O=C1CCOc2ccc3ccccc3c21
4. CC(=O)C1(c2ccccc2)OC1c1ccccc1 (configuration not stated)

Reply text:
["113 % of control", "94 % of control", "101 % of control", "96 % of control"]

Below are some compounds; for each one, tell me its T/C.
1. CCOC(=O)c1c2c(=O)n(C)c(=O)n(C)c2nc2c1c(=O)n(C)c(=O)n2C
2. CCOc1ccccc1NC(=O)NCC(=O)N/N=C/c1ccc(O)c(OC)c1
3. Cc1cc(N(c2c(Cl)c(Cl)c(NS(=O)(=O)c3ccccc3)c(Cl)c2Cl)S(=O)(=O)c2ccccc2)cc(C)c1N

Reply text:
1. 86 % of control
2. 90 % of control
3. 95 % of control

Quick batch: T/C for everything below.
1. Cc1cc2oc(/C=N/N3CCOCC3)c(C)c2cc1C
2. O=c1cc(O)nc2ccccn12

Reply text:
1: 103 % of control; 2: 97 % of control

Could you tell me T/C for each of these compounds? They are listed below.
1. O=C(CNS(=O)(=O)c1ccccc1)c1ccc(Cl)cc1Cl
2. CC1CC(C#N)C(CCC#N)CC1C (configuration not stated)
3. O=C(O)CCC(=O)Nc1ccc(S(=O)(=O)Nc2nccs2)cc1
4. Cc1ccc(S(=O)(=O)Nc2ccccc2OS(=O)(=O)c2ccc(C)cc2)cc1
5. COc1ccc2c(ccc3nc(CCC(=O)O)n(C)c(=O)c32)c1
6. CCc1cc(C)cc(CC)c1N
7. COC(=O)c1ccccc1NC(=S)NC(=O)/C=C/c1ccccc1
8. CCOC(=O)C(Cc1ccccc1)(NC=O)C(=O)OCC

Reply text:
1: 105 % of control; 2: 106 % of control; 3: 98 % of control; 4: 108 % of control; 5: 108 % of control; 6: 90 % of control; 7: 103 % of control; 8: 98 % of control

----------
Could you please report measured T/C for the items listed next?
System: L1210 leukemia ip in BDF1 mice, survival T/C
PROCEDURE_DETAILS: NCI In Vivo Anticancer Drug Screen. Data for tumor model L1210 Leukemia (intraperitoneal) in B6D2F1 (BDF1) mice
TEST_SETTINGS: endpoint: mean survival time; dose: 50.0 mg/kg/injection; schedule: Q01DX009 (ip); vehicle: saline; higher = longer survival
Toxic doses and inconclusive results are not listed.

Recorded T/C, per entry:
> print(dat)
                                   compound  observed.property    value.measured
1  O=C(O)C1C(C(=O)O)C2(Cl)C(Cl)=C(Cl)C1(Cl)C2(Cl)Cl.[Co] (configuration not stated)                T/C  115 % of control
2     Cc1cc[n+](Cc2ccc([N+](=O)[O-])cc2)cc1                T/C   89 % of control
3          CCCCN(C)N=Nc1ccc(CCCC(=O)OCC)cc1                T/C  195 % of control
4  CCCCCCCCCCCCCCCC(=O)N(CCCN)CCCCCCCCCN(CCCN)C(=O)CCCCCCCCCCCCCCC                T/C   97 % of control
5  CN1CC(C(=O)N2CCCCC2)C=C2c3cccc4[nH]cc(c34)CC21 (configuration not stated)                T/C   93 % of control

Give measured T/C for every item shown.
1. CCC(C)C(CCCCN1CCCC1)(CNC(=O)CN(CC)CC)c1cccc2ccccc12 (configuration not stated)
2. NCCSC(c1ccccc1)(c1ccccc1)c1ccccc1
3. C=C(C)CN
4. O/N=C/C=N/O.O/N=C/C=N/O.[Cl][Rh][Cl]
5. CS(=O)(=O)OC12CC3CC(CC(C3)C1)C2
6. O=S(=O)(CCS(=O)(=O)c1ccccc1)c1ccccc1

Reply text:
1: 106 % of control; 2: 103 % of control; 3: 109 % of control; 4: 107 % of control; 5: 96 % of control; 6: 94 % of control

Inquiry: Quote L1210 leukemia ip in BDF1 mice, survival T/C T/C for entry "CC(=O)Nc1onc(C)c1N" .
Reply text: 103 % of control
